system: SF-539 CNS; experiment: NCI tumour cell line growth inhibition, 48 h
Reported values of TGI for individual entries
Write the value in µM as a bare number.

The following molecules have reported results that may help.
{"MOLECULE": "CC1CC(=O)c2c(ccc3c2C(=O)c2cccc(O)c2C3=O)C1 (configuration not stated)", "ASSAYED_TARGET": "SF-539 CNS", "TGI [µM]": 29.5}
{"MOLECULE": "COC(=O)CCC1(O)C=CC(=O)C=C1", "ASSAYED_TARGET": "SF-539 CNS", "TGI [µM]": 76.4}

Note: attention shifts to another entry.
Record for CCC(=O)c1c(C(F)(F)F)n([O-])c2ccccc2[n+]1=O under target or system SF-539 CNS: TGI reported as 10.2

* * *

Property: TGI; scope: individual molecules
test system: K-562 leukemia; test: NCI tumour cell line growth inhibition, 48 h

Worked cases, answers included:
{"MOLECULE": "CC1=NN(C(=O)c2nn(-c3ccc(Cl)cc3)cc2O)C(=O)C1", "TGI": "> 100 µM"}
{"MOLECULE": "COC(=O)CCC(C)[C@H]1CCC2C3C(C[C@H](OC(C)=O)[C@@]21C)[C@@]1(C)CCC2(C[C@H]1C[C@H]3OC(C)=O)OOC1(CCCCC1)OO2 (stereo not given in full)", "TGI": "> 100 µM"}
{"MOLECULE": "COc1cc2c(cc1OCCCCN1CCN(CCCCOc3cc4c(cc3OC)C(=O)N3CCC[C@H]3C=N4)CC1)N=C[C@@H]1CCCN1C2=O", "TGI": "> 11.3 µM"}
{"MOLECULE": "CC(=O)n1c(-c2ccc(Cl)c(Cl)c2)cn(-c2ccc(Cl)cc2)c1=O", "TGI": "80.5 µM"}
{"MOLECULE": "COC1C(O)C(C)OC(O[C@@H]2C[C@H]3CC[C@@H]4[C@H](CC[C@]5(C)[C@@H](C6=CC(=O)OC6)CC[C@]45O)[C@@]3(C)[C@H](O)C2)C1O (stereo not given in full)", "TGI": "0.457 µM"}
{"MOLECULE": "COc1cc(NC(=O)c2cc(O)c(C/C=C(\\C)CCC=C(C)C)c(O)c2)cc2c1O[C@]1(C)CC[C@@H](O)C(C)(C)[C@H]1C2", "TGI": "4.88 µM"}

Noted for Nc1cc(-c2ccccc2)n(C(=O)Nc2ccc(Oc3ccccc3)cc2)n1 : its TGI reads > 100 µM

Per the record, COC1OC(C(C)O)C2OC(C)(C)OC12 (stereo not given) has TGI of > 100 µM

What the record says about O=c1[nH]nc(-c2ccccc2)c2c(-c3ccccc3)onc12 : TGI is > 100 µM

The recorded TGI for CCOP(=O)(OCC)C(=C1C=C(C(C)(C)C)C(=O)C(C(C)(C)C)=C1)P(=O)(OCC)OCC is > 7.45 µM

* * *

test system: U251 CNS; experiment: NCI tumour cell line growth inhibition, 48 h
Where a SMILES comes first, the peptide text is derived from it.
MEASURE_NAME: TGI

// known answers, use as guide
{"COMPOUND": "COc1ccc(/C=C(\\Cl)c2ccc(OC)cc2)cc1", "TEST_RESULT": "> 100 µM"}
{"COMPOUND": "COC1C(OC(N)=O)C(O)C(Oc2ccc3c(O)c(NC(=O)c4ccc(O)c(CC=C(C)C)c4)c(=O)oc3c2C)OC1(C)C (centres undefined)", "TEST_RESULT": "> 100 µM"}
{"COMPOUND": "O=c1cc(-c2ccc(O)cc2)oc2cc(O)cc(O)c12", "TEST_RESULT": "> 100 µM"}
{"COMPOUND": "CCOC(=O)NC(=S)NC(C)c1ccccc1 (centres undefined)", "TEST_RESULT": "> 100 µM"}
{"COMPOUND": "O=C1/C(=C\\c2ccccc2)c2ccccc2N1/N=C\\c1ccccc1", "TEST_RESULT": "> 100 µM"}

So, CC(C)OP(=O)(OC(C)C)C(Nc1cccc(C(F)(F)F)c1)c1ccccc1 (centres undefined) ? Its TGI was > 100 µM

TGI measured on COc1ccc(/C=N\O[Si](C)(C)C(C)(C)C)cc1O[Si](C)(C)C(C)(C)C = 36 µM

The measured TGI associated with CC(=O)Nc1nnc(S(=O)(=O)NC(=S)Nc2ccc(Cl)cc2)s1 reads > 100 µM

Notebook: CN(C)CC1=Nc2cccc3cccc(c23)N1 , TGI read as 32.5 µM

Recorded TGI (compound O=C(O)CO/N=C1/C(c2c(O)[nH]c3ccccc23)=Nc2ccccc21 ): > 100 µM

// CCc1nc(N)nc(N)c1C#CC(C)c1cc(-c2ccnc(C)c2)c2oc(C)nc2c1 (centres undefined) : TGI value = 11.9 µM

Recorded TGI (compound CC(=O)NC(CO)C(=O)NC(Cc1ccc(O)cc1)C(=O)NCC(N)=O (stereo not drawn) (Ac-Ser-Tyr-Gly-NH2; configuration not given here) ): > 100 µM

Per the record, CNc1ncnc2c1cnn2Cc1cn(CCCCO)nn1 has TGI of > 100 µM

Data point: C/C(=N\NC(=S)Nc1ccc(Cl)cc1)c1nc2ncccc2[nH]1 ; TGI = 14.5 µM

TGI reported for this compound CN(C)c1ncnc2c1ccn2C1OC(CO)C(O)C1O (centres undefined) : > 100 µM

response.value for COc1ccc2c(c1)C=C1CSCC3=Cc4cc(OC)ccc4OC13O2 (field: TGI) = > 100 µM

Reported TGI for CCCCN(CCCC)CCC(O)c1cc2ccc(C(F)(F)F)cc2c2cc(C(F)(F)F)ccc12 (centres undefined) was 3.75 µM

Record summary for O=C(Cn1c2ccccc2c2ccncc21)N/N=C\c1ccc2ccccc2c1 : reported TGI = 29.5 µM

Form field TGI, entry C=C(CC)C[C@@H]1C[C@]2(C(=O)OC)c3[nH]c4ccccc4c3CCN2C1=O : 40.8 µM
